Target: T1, cynomolgus monkey TREM2 Fc fusion (entire TREM2 ECD; only one Fc arm fused to TREM2) (cynomolgus monkey, UniProt Q9NZC2 19-174 (human entry))
T1 construct: also called cyno TREM2-Fc
T1 chain: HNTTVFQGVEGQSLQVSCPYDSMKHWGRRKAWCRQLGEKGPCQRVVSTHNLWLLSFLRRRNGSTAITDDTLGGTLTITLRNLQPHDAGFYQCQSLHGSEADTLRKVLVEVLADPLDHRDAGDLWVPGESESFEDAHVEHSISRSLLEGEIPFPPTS
Test: BLI, Fab, monovalent
Listing of entries alongside the reported pKd.
// pKd is dimensionless: -log10 of concentration (M)

Record excerpt, results attached:
[[record]]
binder = "AL2p-22 (antibody, V domains shown, Fab and IgG formats under one id) VH: QVQLVQSGAEVKKPGSSVKVSCKASGYAFSSHWMNWVRQAPGQGLEWMGRIYPGDGDTNYAYKFQGRVTITADESTSTAYMELSSLRSEDTAVYYCARLLRNQPGESYAMDYWGQGTLVTVSS VL: GVVMTQTPLSLSVTPGQPASISCRSSRSLVHSNGYTYLHWYLQKPGQSPQLLIYKVSNRRSGVPDRFSGSGSGTDFTLKISRVEAEDVGVYYCSQSTRVPYTFGQGTKLEIK"
reading = 8.89

[[record]]
binder = "AL2p-10 (antibody, V domains shown, Fab and IgG formats under one id) VH: QVQLVQSGAEVKKPGSSVKVSCKASGYAFSSDWMNWVRQAPGQGLEWMGRIYPGDGDTNYAQKFQGRVTITADESTSTAYMELSSLRSEDTAVYYCARLLRNQPGESYAMDYWGQGTLVTVSS VL: GVVMTQTPLSLSVTPGQPASISCRSSQSLVHSNGYTYLHWYLQKPGQSPQLLIYKVSNRRSGVPDRFSGSGSGTDFTLKISRVEAEDVGVYYCSQSTRVPYTFGQGTKLEIK"
reading = 7.56


Then there is this binder:
Problem: Which pKd is reported for this binder? AL2p-15 (antibody, V domains shown, Fab and IgG formats under one id) VH: QVQLVQSGAEVKKPGSSVKVSCKASGYAFSSHWMNWVRQAPGQGLEWMGRIYPGDGDTNYAQKFQGRVTITADESTSTAYMELSSLRSEDTAVYYCARLLRNQPGESYAMDYWGQGTLVTVSS VL: GVVMTQTPLSLSVTPGQPASISCRSSSSLVHSNGYTYLHWYLQKPGQSPQLLIYKVSNRKSGVPDRFSGSGSGTDFTLKISRVEAEDVGVYYCSQSTRVPYTFGQGTKLEIK
Result: 8.06
